Measured IC50, listed per entry for reference.
# system-tested: FGFR3 (h) (Homo sapiens, UniProt P22607)
# Sequence (P22607 23-806): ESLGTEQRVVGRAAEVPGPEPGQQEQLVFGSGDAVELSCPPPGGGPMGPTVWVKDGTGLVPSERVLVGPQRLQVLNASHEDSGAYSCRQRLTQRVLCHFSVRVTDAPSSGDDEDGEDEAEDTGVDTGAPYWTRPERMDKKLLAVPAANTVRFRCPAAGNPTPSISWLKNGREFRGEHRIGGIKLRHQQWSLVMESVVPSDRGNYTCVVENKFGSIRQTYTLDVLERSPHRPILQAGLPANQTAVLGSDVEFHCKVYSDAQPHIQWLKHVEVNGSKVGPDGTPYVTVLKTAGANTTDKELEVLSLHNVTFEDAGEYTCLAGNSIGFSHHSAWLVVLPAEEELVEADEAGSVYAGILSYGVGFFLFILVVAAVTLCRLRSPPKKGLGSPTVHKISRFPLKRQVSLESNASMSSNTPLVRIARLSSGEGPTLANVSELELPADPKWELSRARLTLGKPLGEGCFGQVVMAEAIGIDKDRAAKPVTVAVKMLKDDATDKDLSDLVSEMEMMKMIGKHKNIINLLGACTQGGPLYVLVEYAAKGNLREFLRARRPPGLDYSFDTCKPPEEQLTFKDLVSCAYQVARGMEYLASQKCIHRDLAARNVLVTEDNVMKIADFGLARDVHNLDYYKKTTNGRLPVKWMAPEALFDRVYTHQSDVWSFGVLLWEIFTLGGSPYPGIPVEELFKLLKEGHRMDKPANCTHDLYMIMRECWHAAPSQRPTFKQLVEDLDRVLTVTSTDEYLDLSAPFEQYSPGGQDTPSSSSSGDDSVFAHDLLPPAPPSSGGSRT
# test-summary: FGFR3 (enzymatic assay), TR-FRET
# Format: biochemical
# assay-conditions: read-out: FGFR 3 pIC50 (converted)
quantity: IC50

INSERT INTO measurements (compound, system_tested, value_measured) VALUES
  ('COc1cc(OC)cc(N(CC2CC2)c2ccc3ncc(-n4cnc(CO)c4)nc3c2)c1', 'FGFR3 (h) (Homo sapiens, UniProt P22607)', '13.8 nM'),
  ('COc1cc(OC)cc(N(CC2CC2)c2ccc3ncc(-c4nccs4)nc3c2)c1', 'FGFR3 (h) (Homo sapiens, UniProt P22607)', '676 nM'),
  ('COc1cc(OC)cc(N(CCCNCC(F)(F)F)c2ccc3ncc(-c4ccnc(C(=O)NCCCN)c4)nc3c2)c1', 'FGFR3 (h) (Homo sapiens, UniProt P22607)', '61.7 nM'),
  ('COc1cc(OC)cc(N(CCCO)c2ccc3ncc(-c4ccnc(-c5ccnc(Cl)c5)c4)nc3c2)c1', 'FGFR3 (h) (Homo sapiens, UniProt P22607)', '50.1 nM'),
  ('COc1cc(OC)cc(N(CCO)c2ccc3ncc(-c4cccnc4)nc3c2)c1', 'FGFR3 (h) (Homo sapiens, UniProt P22607)', '4.68 nM'),
  ('COc1cc(OC)cc(N(CC2CC2)c2ccc3ncc(-c4cn(CCO)nn4)nc3c2)c1', 'FGFR3 (h) (Homo sapiens, UniProt P22607)', '49 nM'),
  ('COc1cc(OC)cc(N(CC2CC2)c2ccc3ncc(-n4ccc(C)n4)nc3c2)c1', 'FGFR3 (h) (Homo sapiens, UniProt P22607)', '339 nM'),
  ('COc1cc(OC)cc(N(CC2CC2)c2ccc3ncc(NC(=O)c4ccc(F)cc4)nc3c2)c1', 'FGFR3 (h) (Homo sapiens, UniProt P22607)', '1200 nM'),
  ('COc1cc(OC)cc(N(CCNC(C)C)c2ccc3ncc(C(=O)NCCCN4CCN(C)CC4)nc3c2)c1', 'FGFR3 (h) (Homo sapiens, UniProt P22607)', '155 nM'),
  ('COc1cc(OC)cc(N(CCNC(C)C)c2ccc3ncc(C(=O)N4CCOCC4)nc3c2)c1', 'FGFR3 (h) (Homo sapiens, UniProt P22607)', '501 nM'),
  ('COc1cc(OC)cc(N(CCCO)c2ccc3ncc(-c4ccnc(C(=O)NCCCCCN)c4)nc3c2)c1', 'FGFR3 (h) (Homo sapiens, UniProt P22607)', '11.2 nM'),
  ('COc1cc(OC)cc(N(CCNC(C)C)c2ccc3ncc(C(=O)NCCCN4CCCCC4)nc3c2)c1', 'FGFR3 (h) (Homo sapiens, UniProt P22607)', '126 nM'),
  ('COc1cc(OC)cc(N(CCNC(C)C)c2ccc3ncc(-c4ccnn4C4CCCCO4)nc3c2)c1 (stereo not shown)', 'FGFR3 (h) (Homo sapiens, UniProt P22607)', '17.8 nM'),
  ('COc1cc(OC)cc(N(CC2CC2)c2ccc3ncc(-c4cnc5[nH]ccc5c4)nc3c2)c1', 'FGFR3 (h) (Homo sapiens, UniProt P22607)', '380 nM'),
  ('COc1cc(OC)cc(N(CC2CC2)c2ccc3ncc(-c4cccn4C)nc3c2)c1', 'FGFR3 (h) (Homo sapiens, UniProt P22607)', '~1000 nM'),
  ('CNCCN(c1cc(OC)cc(OC)c1)c1ccc2ncc(-c3ccc(NC(=O)OC(C)(C)C)nc3)nc2c1', 'FGFR3 (h) (Homo sapiens, UniProt P22607)', '10 nM');

These data points were gathered from patent US10052320B2.
